Reference source: ChEMBL document CHEMBL3228013

experiment: Half life of the compound in 1:1 H2O:ethylalcohol containing 5 x 10^-3 M NaOH at 8.3 x 10^-5 M by UV-spectroscopy; type: physicochemical; details: 1:1 water:ethanol with NaOH

| compound | half-life at 83 µM [s] |
| --- | --- |
| NP(=O)(Oc1c(F)c(F)c(F)c(F)c1F)N(CCCl)CCCl (stereo unspecified) | 52 |

###

assay: Half life of the compound in 1:4 D2O:[…] containing at 1 x 10^-3 M NaOD at 5 x 10^-2 M by UV-spectroscopy; assay type: physicochemical; conditions: 1:4 D2O:Me2SO-d2 with NaOD

| molecule | half-life at 50000 µM, min |
| --- | --- |
| O=P(Nc1ccccc1)(Oc1c(F)c(F)c(F)c(F)c1F)N(CCCl)CCCl (stereo not drawn) | 5.3 |
| CCOc1ccc(NP(=O)(Oc2c(F)c(F)c(F)c(F)c2F)N(CCCl)CCCl)cc1 (stereo not drawn) | 8.17 |
| Cc1ccc(NP(=O)(Oc2c(F)c(F)c(F)c(F)c2F)N(CCCl)CCCl)cc1 (stereo not drawn) | 6.53 |
